pIC50: −log10 of the molar value.
// cross-study collection: pIC50 for Platelet-derived growth factor receptor beta (Mus musculus, UniProt P05622)
Readout type: pIC50

[A] CCOc1ccc2c(c1)ncn2-c1ccccc1
[B] Nc1c(-c2nc3ccc(N4CCOCC4)nc3[nH]2)c(=O)[nH]c2ccccc12
## Task Between A and B , which one has the lower reported pIC50 value? Select an item and report its label.
## Result A

[I] COc1cc(OC)cc(-c2cc3cnc(NCCCN4CCN(C)CC4)cc3nc2NC(=O)NC(C)(C)C)c1
[II] CN1CCN(CCCCNc2cc3c(cn2)cc(-c2c(Cl)cccc2Cl)c(=O)n3C)CC1
[III] CCN(CC)CCCCNc1cc2nc(NC(=O)NC(C)(C)C)c(-c3c(Cl)cccc3Cl)cc2cn1
## Task Sort low-to-high on pIC50, please. Record the ranking as a list of labels in the requested order.
## Result I, II, III
(I: 4.80, II: 5.96, III: 6.32)

###

// cross-study collection: pIC50 for Platelet-derived growth factor receptor beta (Mus musculus, UniProt P05622)
pIC50: −log10 of the molar value.
Readout type: pIC50

{"Smiles input": "CSc1ccc2c(c1)ncn2-c1ccccc1", "pIC50": 6.13}

[I] COc1cc(OC)cc(-c2cc3cnc(NC(C)=O)cc3nc2NC(=O)NC(C)(C)C)c1
[II] Nc1c(-c2nc3cc(N4CCOCC4)ccc3[nH]2)c(=O)[nH]c2ccccc12
## Task Rank I against II by their pIC50 values and give the higher one. Select an item and report its label.
## Result II

[P] CCNC(=O)Nc1nc2cc(NCCCCN(CC)CC)ncc2cc1-c1cc(OC)cc(OC)c1
[Q] CN1CCN(c2ccc3nc(-c4c(N)c5ccccc5[nH]c4=O)[nH]c3n2)CC1
## Task Between P and Q , which one has the lower reported pIC50 value? Select an item and report its label.
## Result P

[P] Cn1ncc2c(N)c(-c3nc4ccccc4[nH]3)c(O)nc21
[Q] CCN(CC)CCCCNc1cc2c(cn1)cc(-c1c(Cl)cccc1Cl)c(=O)n2C
[R] Fc1ccc2c(-c3nc4cc(N5CCC(N6CCCCC6)CC5)ccc4[nH]3)[nH]nc2c1
[S] COc1cc(OC)cc(-c2cc3cnc(NCCCCO)cc3nc2NC(=O)NC(C)(C)C)c1
## Task Given 4 compounds, produce a descending ranking by pIC50. Record the ranking as a list of labels in the requested order.
## Result R, P, Q, S
(R: 6.51, P: 6.24, Q: 5.62, S: 4.64)
